measurementTarget: AKT1 WT (Homo sapiens)
experiment: Live cell AKT1 WT target engagement by NanoBRET competitive probe displacement
cond: HEK293 cells transfected with kinase-NanoLuciferase fusion, 2 h at 37° C.
Reported IC50 values for the following molecules.
# number only, unit nM dropped from output

# molecule, measurementTarget, parameterMeasured, val
data = [
    ("C#CC1CC(N[C@H]2CCc3cc(-n4c(-c5cccnc5N)nc5ccc(-n6cccn6)nc54)ccc32)CCN1C(=O)C=C (single isomer, unassigned) [Example 111]", "AKT1 WT (Homo sapiens)", "IC50", 21.6),
    ("C=CC(=O)N1CCC(N[C@H]2CCc3cc(-n4c(-c5cccnc5N)nc5ccc(-n6cccn6)nc54)ccc32)C(C)C1 (single isomer, unassigned) [Example 100]", "AKT1 WT (Homo sapiens)", "IC50", 9.09),
]

Consider the record given below.
Per the records, this molecule ( C=CC(=O)N1CCC(N[C@@H]2c3ccc(-n4c(-c5cccnc5N)nc5ccc(-n6ccc(C#N)n6)nc54)cc3CC2F)CC1 (single isomer, unassigned) [Example 311] ) has IC50 equal to 1190

====

measurementTarget: AKT2 (Homo sapiens)
Sequence (P31751 whole entry): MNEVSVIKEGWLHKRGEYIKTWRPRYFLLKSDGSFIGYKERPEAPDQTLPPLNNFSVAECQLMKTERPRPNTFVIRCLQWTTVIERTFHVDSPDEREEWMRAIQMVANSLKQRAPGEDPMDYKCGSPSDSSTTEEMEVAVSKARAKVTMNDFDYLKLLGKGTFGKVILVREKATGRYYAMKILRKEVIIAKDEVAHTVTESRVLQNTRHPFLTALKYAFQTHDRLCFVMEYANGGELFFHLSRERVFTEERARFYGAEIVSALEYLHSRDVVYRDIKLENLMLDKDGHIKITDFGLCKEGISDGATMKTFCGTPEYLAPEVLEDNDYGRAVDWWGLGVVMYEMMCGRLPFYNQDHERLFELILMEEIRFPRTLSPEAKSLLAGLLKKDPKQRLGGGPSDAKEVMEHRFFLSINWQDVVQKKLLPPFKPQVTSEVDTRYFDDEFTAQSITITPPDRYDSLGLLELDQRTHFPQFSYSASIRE
experiment: Live cell AKT2 target engagement by NanoBRET competitive probe displacement
cond: HEK293 cells transfected with kinase-NanoLuciferase fusion, 2 h at 37° C.
// boundary case: IC50 equal to 1 µM maps to F; strictly smaller maps to T

Observe how each entry below is paired with its result.
# compound, labelValue
data = [
    ("C=CC(=O)N1CCC(N[C@@H]2c3ccc(-n4c(-c5cccnc5N)nc5ccc(-n6cccn6)nc54)cc3CC2F)C[C@H]1C (single isomer, unassigned) [Example 143]", "F"),
    ("C=CC(=O)N1CCC(N[C@H]2CCc3cc(-n4c(-c5cccnc5N)nc5ccc(-n6cccn6)nc54)ccc32)C1 (single isomer, unassigned) [Example 58]", "F"),
    ("C=CC(=O)N1CCC(CN[C@H]2CCc3cc(-n4c(-c5cccnc5N)nc5ccc(-n6cccn6)nc54)ccc32)(OC)CC1 [Example 183]", "T"),
    ("C=CC(=O)N1CCC(C(=O)N[C@H]2CCc3cc(-n4c(-c5cccnc5N)nc5ccc(-n6cccn6)nc54)ccc32)CC1 [Example 29]", "T"),
    ("C=C(F)C(=O)Nc1cnn(C)c1C(=O)N[C@H]1CCc2cc(-n3c(-c4cccnc4N)nc4ccc(-n5cccn5)nc43)ccc21 [Example 35]", "F"),
]

Here is another compound to look at.
Criterion: IC50 strictly below 1 µM. Is it met by C=CC(=O)N1CCC(N[C@H]2CC(F)c3cc(-n4c(-c5cccnc5N)nc5ccc(-n6cccn6)nc54)ccc32)CC1 (single isomer, unassigned) [Example 234] ? T

====

Reported IC50 values for the following compounds.
measurementTarget: AKT1 WT (Homo sapiens, UniProt P31749)
Sequence (P31749 whole entry): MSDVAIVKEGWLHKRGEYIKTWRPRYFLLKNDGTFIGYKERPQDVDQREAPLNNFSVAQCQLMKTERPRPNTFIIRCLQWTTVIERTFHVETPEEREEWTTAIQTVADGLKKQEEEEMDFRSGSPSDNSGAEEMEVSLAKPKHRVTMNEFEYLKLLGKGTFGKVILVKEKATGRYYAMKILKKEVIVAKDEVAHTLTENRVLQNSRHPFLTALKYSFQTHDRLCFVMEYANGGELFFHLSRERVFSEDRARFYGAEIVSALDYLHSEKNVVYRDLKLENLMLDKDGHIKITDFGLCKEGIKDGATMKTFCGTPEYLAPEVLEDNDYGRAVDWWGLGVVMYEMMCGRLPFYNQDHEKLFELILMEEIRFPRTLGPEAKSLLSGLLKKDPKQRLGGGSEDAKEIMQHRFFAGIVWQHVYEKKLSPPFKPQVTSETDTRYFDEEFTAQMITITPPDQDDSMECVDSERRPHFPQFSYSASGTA
experiment: Live cell AKT1 WT target engagement by NanoBRET competitive probe displacement
cond: HEK293 cells transfected with kinase-NanoLuciferase fusion, 2 h at 37° C.
# number only, unit µM dropped from output

Guide cases for IC50, answers given:
# compound, IC50 [µM]
measured = [
    ("C=CC(=O)N1CCC(N[C@H]2CCc3cc(-n4c(-c5cccnc5N)nc5ccc(-c6ccn(C(F)F)n6)nc54)ccc32)CC1", 0.00619),
    ("C=CC(=O)N1CCC(c2cn([C@H]3CCc4cc(-n5c(-c6cccnc6N)nc6ccc(-n7cccn7)nc65)ccc43)nn2)CC1", 0.593),
]

Consider the record given below.
Per the records, this compound ( C=CC(=O)N1CCC(N[C@@H]2c3ccc(-n4c(-c5cccnc5N)nc5ccc(-n6ccc(F)n6)nc54)cc3CC2F)C[C@@H]1C (single isomer, unassigned) [Example 271] ) has IC50 equal to 0.928

====

measurementTarget: AKT1 E17K (Homo sapiens, UniProt P31749, E17K)
Sequence (P31749 whole entry E17K): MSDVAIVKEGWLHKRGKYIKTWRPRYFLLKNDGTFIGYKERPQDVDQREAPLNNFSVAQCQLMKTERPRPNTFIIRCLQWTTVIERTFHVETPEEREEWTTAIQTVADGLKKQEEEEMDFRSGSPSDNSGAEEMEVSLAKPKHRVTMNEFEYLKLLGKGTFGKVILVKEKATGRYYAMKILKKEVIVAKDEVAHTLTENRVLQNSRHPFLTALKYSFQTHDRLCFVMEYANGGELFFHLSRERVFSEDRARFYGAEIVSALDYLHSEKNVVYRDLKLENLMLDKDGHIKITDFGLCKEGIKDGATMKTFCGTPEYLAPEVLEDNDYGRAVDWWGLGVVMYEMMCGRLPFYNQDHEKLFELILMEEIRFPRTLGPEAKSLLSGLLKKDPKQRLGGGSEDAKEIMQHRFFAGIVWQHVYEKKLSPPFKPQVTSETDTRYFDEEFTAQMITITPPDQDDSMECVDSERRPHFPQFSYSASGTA
experiment: Live cell AKT1 E17K target engagement by NanoBRET competitive probe displacement
cond: HEK293 cells transfected with kinase-NanoLuciferase fusion, 2 h at 37° C.
Reported IC50 values for the following compounds.
# number only, unit µM dropped from output

Guide cases for IC50, answers given:
# compound, measurementTarget, IC50 [µM]
measured = [
    ("C=CC(=O)N1CCC(N[C@H]2CCc3cc(-n4c(-c5cccnc5N)nc5ccc(C6CC6)nc54)ccc32)C[C@H]1C (single isomer, unassigned) [Example 211]", "AKT1 E17K (Homo sapiens, UniProt P31749, E17K)", 0.0237),
    ("C=CC(=O)N1CCC(N[C@@H]2c3c(F)cc(-n4c(-c5cccnc5N)nc5ccc(-n6cccn6)nc54)cc3CC2F)CC1 (single isomer, unassigned) [Example 342]", "AKT1 E17K (Homo sapiens, UniProt P31749, E17K)", 0.0239),
]

Per the records, this compound ( C=CC(=O)NC1CC(N[C@H]2CCc3cc(-n4c(-c5cccnc5N)nc5ccc(-n6cccn6)nc54)ccc32)C1 (single isomer, unassigned) [Example 89] ) has IC50 equal to 0.0229

Per the records, this compound ( C=C(C)C(=O)Nc1ccccc1C(=O)N[C@H]1CCc2cc(-n3c(-c4cccnc4N)nc4ccc(-n5cccn5)nc43)ccc21 [Example 17] ) has IC50 equal to 0.146

Per the records, this compound ( C=CC(=O)N1CCC(N[C@H]2CCc3cc(-n4c(-c5cccnc5N)nc5ccc(-n6ccc(F)n6)nc54)ccc32)CC1 [Example 49] ) has IC50 equal to 0.146

====

measurementTarget: UniProt:P31751
experiment: Live cell AKT2 target engagement by NanoBRET competitive probe displacement
cond: HEK293 cells transfected with kinase-NanoLuciferase fusion, 2 h at 37° C.
parameterMeasured: log10(IC50) (log10 of the value in nM)
On a log10 scale: recorded IC50, unit nM.

# compound, log10(IC50)
rows = [
    ("C=CC(=O)N1CCCC(N[C@H]2CCc3cc(-n4c(-c5cccnc5N)nc5ccc(-n6cccn6)nc54)ccc32)CC1 (single isomer, unassigned) [Example 82]", 2.81),
    ("C#CC1CC(N[C@H]2CCc3cc(-n4c(-c5cccnc5N)nc5ccc(-n6cccn6)nc54)ccc32)CCN1C(=O)C=C (single isomer, unassigned) [Example 113]", 1.71),
    ("C=CC(=O)N1CCCc2cccc(C(=O)N[C@H]3CCc4cc(-n5c(-c6cccnc6N)nc6ccc(-n7cccn7)nc65)ccc43)c21 [Example 40]", 2.42),
    ("C=CC(=O)N1CCC(N[C@H]2CCc3cc(-n4c(-c5cccnc5N)nc5ccc(N6CCC(F)CC6)nc54)ccc32)CC1 [Example 238]", 2.82),
    ("C=CC(=O)N1CCC(N[C@H]2CCc3cc(-n4c(-c5cccnc5N)nc5ccc(-c6cccnc6)nc54)ccc32)CC1 [Example 110]", 2.80),
]

Consider the record given below.
Per the records, this compound ( C=CC(=O)N1CCC(N[C@H]2CCc3cc(-n4c(-c5cccnc5N)nc5ccc(-c6cnn(C)n6)nc54)ccc32)CC1 [Example 160] ) has log10(IC50) equal to 1.47

====

measurementTarget: AKT1 WT (Homo sapiens)
experiment: Live cell AKT1 WT target engagement by NanoBRET competitive probe displacement
cond: HEK293 cells transfected with kinase-NanoLuciferase fusion, 2 h at 37° C.
parameterMeasured: log10 IC50 (log10 of the value in µM)
On a log10 scale: recorded IC50, unit µM.

# compound, log10 IC50
records = [
    ("C=CC(=O)N1CCC(NC2CCc3cc(-n4c(-c5cccnc5N)nc5ccc(C6CC6(F)F)nc54)ccc32)CC1 (single isomer, unassigned) [Example 244]", -0.01),
    ("C=CC(=O)N1CCCC(N[C@H]2CCc3cc(-n4c(-c5cccnc5N)nc5ccc(-n6cccn6)nc54)ccc32)C1 (single isomer, unassigned) [Example 125]", -0.53),
]

Per the records, this compound ( `C=CC(=O)N1CCC(N[C@H]2CCc3cc(-n4c(-c5ccccc5)nc5ccc(C6CC6)nc54)ccc32)CC1` ) has log10 IC50 equal to 0.40

Per the records, this compound ( C=CC(=O)N1CCC(N[C@@H]2c3ccc(-n4c(-c5cccnc5N)nc5ccc(-n6ccc(F)n6)nc54)cc3CC2F)C[C@H]1C (single isomer, unassigned) [Example 275] ) has log10 IC50 equal to 0.42

Per the records, this compound ( C=CC(=O)N1CCC(N[C@@H]2c3ccc(-n4c(-c5cccnc5N)nc5ccc(-n6cccn6)nc54)cc3CC2F)CC1C(F)F (single isomer, unassigned) [Example 302] ) has log10 IC50 equal to -1.09

Per the records, this compound ( C=CC(=O)N1CCC(N[C@H]2CCc3cc(-n4c(-c5cccnc5N)nc5ccc(-n6cccn6)nc54)ccc32)C[C@H]1C (single isomer, unassigned) [Example 62] ) has log10 IC50 equal to -2.03

====

measurementTarget: AKT1 WT (Homo sapiens)
experiment: Live cell AKT1 WT target engagement by NanoBRET competitive probe displacement
cond: HEK293 cells transfected with kinase-NanoLuciferase fusion, 2 h at 37° C.
Reported IC50 values for the following compounds.

Guide cases for IC50, answers given:
# compound, parameterMeasured, val
data = [
    ("C=CC(=O)N1C2CCC1CC(N[C@H]1CCc3cc(-n4c(-c5cccnc5N)nc5ccc(-n6cccn6)nc54)ccc31)C2 (stereo partly drawn)", "IC50", "39.4 nM"),
    ("C=CC(=O)N1CCOCC(N[C@H]2CCc3cc(-n4c(-c5cccnc5N)nc5ccc(-n6cccn6)nc54)ccc32)C1 (single isomer, unassigned) [Example 54]", "IC50", "27.1 nM"),
    ("C=CC(=O)N1CCC(N[C@@H]2c3ccc(-n4c(-c5cccnc5N)nc5ccc(-n6ccc(C7CC7)n6)nc54)cc3CC2F)CC1C(F)F (single isomer, unassigned)", "IC50", "137 nM"),
]

Per the records, this compound ( `C=CC(=O)N1CCC(N(C)[C@H]2CCc3cc(-n4c(-c5cccnc5N)nc5ccc(-n6cccn6)nc54)ccc32)CC1` ) has IC50 equal to 21.8 nM

Per the records, this compound ( `C=CC(=O)Nc1ccccc1CN[C@H]1CCc2cc(-n3c(-c4cccnc4N)nc4ccc(-n5cccn5)nc43)ccc21` ) has IC50 equal to 64.2 nM

Per the records, this compound ( C=CC(=O)N1[C@H](C)CC(N[C@H]2CCc3cc(-n4c(-c5cccnc5N)nc5ccc(-n6cccn6)nc54)ccc32)C[C@@H]1C (single isomer, unassigned) [Example 88] ) has IC50 equal to 21.5 nM

Per the records, this compound ( `CC#CC(=O)Nc1cccc(C(=O)N[C@H]2CCc3cc(-n4c(-c5cccnc5N)nc5ccc(-n6cccn6)nc54)ccc32)c1` ) has IC50 equal to 11.2 nM

Measured values drawn from patent US12570655B2 for this set.
